# credit: ChEMBL document CHEMBL1124107

# Tested on: Rattus norvegicus
# Experiment Description: Increase in diastolic blood pressure for 0.1 ug/kg intravenous dosing of angiotensin in pithed rats
# Assay type: functional, Artery
Recorded Increase in blood pressure, one value per entry.

- Compound: "NNc1nncc2ccccc12 [HYDRALAZINE]"
  Increase in blood pressure: "21 mmHg"
- Compound: "Nc1cc(N2CCCCC2)nc(N)[n+]1[O-] [MINOXIDIL]"
  Increase in blood pressure: "13 mmHg"
- Compound: "Cc1ccccc1-c1nnc(NN)s1.Cl"
  Increase in blood pressure: "28 mmHg"
- Compound: "COc1cc2nc(N3CCN(C(=O)c4ccco4)CC3)nc(N)c2cc1OC [PRAZOSIN]"
  Increase in blood pressure: "45 mmHg"
